# MIC annotations
Test system: Escherichia coli TEM3 3455E
Assay: MIC against standard strains (agar dilution)
Format: cell-based
Settings: TEM33455E, 20 h
Method: Test example 1: Measurement of Minimum Inhibitory Concentration (MIC) Specifically, test compounds were diluted by 2-fold dilution method and dispersed in Mueller-Hinton agar medium and then, 2µℓ of test strains were inoculated at a concentration of 10^7 cfu(colony forming unit)/mℓ on the medium and incubated for 20 hours at 37°C.

{"COMPOUND": "CCO/N=C(\\C(=O)NC1C(=O)N2C(C(=O)O)=C(Sc3cc(N)nc(N)n3)CSC12)c1csc(N)n1 (stereo not drawn)", "MIC, µg/mL": 16}
{"COMPOUND": "CCO/N=C(\\C(=O)NC1C(=O)N2C(C(=O)O)=C(Sc3cc(N)nc(N)n3)CSC12)c1nsc(N)n1 (stereo not drawn)", "MIC, µg/mL": 32}
{"COMPOUND": "Nc1cc(SC2=C(C(=O)O)N3C(=O)C(NC(=O)/C(=N\\O)c4csc(N)n4)C3SC2)nc(N)n1 (stereo not drawn)", "MIC, µg/mL": 64}
